Reference source for all entries: paper PMC7031696

Tested on: 3D7-MR4 trophozoite parasite-infected RBCs
runDescription: Metabolomic profiling (hydrophilic metabolite changes, UHPLC-MS)
Type: cell-based, Plasmodium falciparum
experimentalParameters: metabolite indole
Label scheme for Log2(fold change) indole: lower than 0 is 0, 0 and above is 1.

In [3]: df
Out[3]:
                                   compound                                systemname  qualitativelabel
0  CCN(CC)CCn1c(=N)n(CC(O)c2ccc(Cl)c(Cl)c2)c2ccccc21.Cl (centres unmarked)  3D7-MR4 trophozoite parasite-infected RBCs                 0
1  CN(C(=O)c1cn2c(-c3ccc(C(F)(F)F)cc3)cnc2cn1)c1ccc(C#N)cc1 [KAI407, reference compound]  3D7-MR4 trophozoite parasite-infected RBCs                 1
2  Cc1cc(Nc2ccc(OCc3ccccc3)cc2)nc2cc(O)ccc12  3D7-MR4 trophozoite parasite-infected RBCs                 0
3  C[C@H]1Cc2c([nH]c3cc(Cl)c(F)cc23)[C@@]2(N1)C(=O)Nc1ccc(Cl)cc12 [KAE609, reference compound]  3D7-MR4 trophozoite parasite-infected RBCs                 1

====

System: 3D7-MR4 trophozoite parasite-infected RBCs
runDescription: Metabolomic profiling (hydrophilic metabolite changes, UHPLC-MS)
Assay type: cell-based, Plasmodium falciparum
experimentalParameters: metabolite malate
Decision: Log2(fold change) malate >= -0.9 yields Y, all other cases yield N.

In [3]: df
Out[3]:
                                   molecule  qualitativelabel
0  O=C1C(O)=C([C@H]2CC[C@H](c3ccc(Cl)cc3)CC2)C(=O)c2ccccc21 [Atovaquone, reference compound]                 Y
1  CCCOCc1cc(CN2CCN(c3cccc(Cl)c3)CC2)c(O)c2ncccc12                 Y
2  O=C(Nc1ccc(N2CCNCC2)cc1)c1ccn2ncc(-c3cccc(Cl)c3)c2n1.O=C(O)C(F)(F)F                 N
3  CC(C)(C)OC(=O)N1CCN(c2ccccc2NC(=O)c2cccc(C(F)(F)F)c2Oc2ccc(F)cc2)CC1                 N
4  COc1cncc(-c2cncc(N3CCN(c4ccncc4)CC3)n2)c1                 Y
5    O=C(Nc1ccsc1C(=O)NC1CCCCC1)c1ccc(F)cc1                 Y
6  Cl.c1ccc2c(NCCCCCCNc3c4c(nc5ccccc35)CCCC4)c3c(nc2c1)CCCC3                 Y

====

runDescription: physchem
experimentalParameters: pH 7.4
This section presents compounds with their documented solubility at 1.5 h values.
readoutType: solubility at 1.5 h

In [3]: df
Out[3]:
                                   compound          readouttype    result
0  CCCN(CCC)CC(O)COc1ccccc1C(=O)Nc1ccccc1 (centres unmarked) [MMV006455]  solubility at 1.5 h  > 100 µM
1  Cc1cc(Nc2ccc(OCc3ccccc3)cc2)nc2cc(O)ccc12 [MMV007181]  solubility at 1.5 h  > 100 µM

====

System: Plasmodium falciparum 3D7-A10 parasites
runDescription: Stage specificity assay (8-h exposure of synchronized stages, IC50^8h)
Type: cell-based
experimentalParameters: Plasmodium falciparum, 3D7, read-out: Late trophozoites IC50 (IC50^8h), 8-h exposure 24–32 hr, bound given in μM
readoutType: IC50

                             smilesnotation   result
0  Cc1ccc(Oc2ncccc2C(=O)Nc2cccc3cccnc23)c(C)c1  > 25 µM
